Read-out record for HCV polymerase (Hepatitis C virus genotype 1b): IC50
Measurement Type: IC50 (nM)

> print(dat)
                                   molecule  measurement.type  measure.unit  result
1  CC(C)(C)C#Cc1cc(N2C(=O)CCC2C2CCCCC2)c(C(=O)O)s1 (stereo not shown)              IC50            nM      15
2  CC(C)S(=O)(=O)N1CC(=O)N(c2cc(C#CC(C)(C)C)sc2C(=O)O)[C@H](C2CCCCC2)C1              IC50            nM      19
3  CCc1ccc(-c2cc(N3C(=O)CCCC3C3CCCCC3)c(C(=O)O)s2)cc1 (stereo not shown)              IC50            nM      64
4  CC(C)(C)C#Cc1cc(N2C(=O)CN(S(=O)(=O)c3c(F)cccc3F)C[C@H]2C2CCCCC2)c(C(=O)O)s1              IC50            nM       4

----------
What follows is a collection of IC50 values obtained with HCV polymerase (Hepatitis C virus genotype 1b, UniProt Q9WMX2).
Measurement Type: IC50 (nM)

> print(dat)
                                    compound  measurement.type  measure.unit  bound.sign  result
 1  CC(C)(C)C#Cc1cc(N2C(=O)[C@H](CC(O)CO)OC[C@H]2C2CCCCC2)c(C(=O)O)s1 (stereo partly shown) [Compound 331]              IC50            nM           =       8
 2  Cc1ccc(-c2cc(N3C(=O)CN(S(=O)(=O)c4ccc(N5CCOC[C@H]5C)nc4)C[C@H]3C3CCCCC3)c(C(=O)O)s2)cc1 [Compound 197]              IC50            nM           =     4.6
 3  Cc1ccc(-c2cc(N3C(=O)CCCC3C3CCCCC3)c(C(=O)O)s2)cc1 (stereo not shown) [Compound 71]              IC50            nM           =      52
 4  CC(C)(C)C#Cc1cc(N2C(=O)C(O)(CCCO)CCC2C2CCCCC2)c(C(=O)O)s1 (stereo not shown) [Compound 11]              IC50            nM           =       8
 5  O=C(O)c1sc(-c2ccccc2)cc1N1C(=O)CN(S(=O)(=O)c2ccc(N3CC4CC3CO4)nc2)C[C@H]1C1CCCCC1 (stereo partly shown) [Compound 217]              IC50            nM           =       1
 6  O=C(O)c1sc(-c2ccccc2)cc1N1C(=O)CN(Cc2cccc(F)c2N2CCOCC2)C[C@H]1C1CCCCC1 [Compound 266]              IC50            nM           =     142
 7  O=C(O)c1sc(-c2ccccc2)cc1N1C(=O)CN(S(=O)(=O)c2cccc(F)c2)CC1C1CCCCC1 (stereo not shown) [Compound 104]              IC50            nM           =      21
 8  C[C@@H](O)C[C@H]1OC[C@@H](C2CCCCC2)N(c2cc(C#CC(C)(C)C)sc2C(=O)O)C1=O [Compound 336]              IC50            nM           =       3
 9  CC(O)C1CCC(C2CCCCC2)N(c2cc(C#CC(C)(C)C)sc2C(=O)O)C1=O (stereo not shown) [Compound 316]              IC50            nM           =       3
10  CC(C)(C)C#Cc1cc(N2C(=O)[C@@](C)(CCC(C)(C)O)OC[C@H]2C2CCCCC2)c(C(=O)O)s1 [Compound 319]              IC50            nM           =       4
11  CCN1CCN(c2ccc(S(=O)(=O)N3CC(=O)N(c4cc(-c5ccccc5)sc4C(=O)O)[C@H](C4CCCCC4)C3)cn2)CC1 [Compound 148]              IC50            nM           =       2
12  CCOc1ccc(-c2cc(N3C(=O)CCCC3C3CCCCC3)c(C(=O)O)s2)cc1 (stereo not shown) [Compound 116]              IC50            nM           =      64
13  Cc1oc(C)c(S(=O)(=O)N2CC(=O)N(c3cc(-c4ccccc4)sc3C(=O)O)C(C3CCCCC3)C2)c1C(=O)O (stereo not shown) [Compound 33]              IC50            nM           =      38
14  O=C(O)c1sc(-c2ccccc2)cc1N1C(=O)CC(O)CC1C1CCCCC1 (stereo not shown) [Compound 12]              IC50            nM           =      45
15  O=C(O)c1sc(-c2ccccc2)cc1N1C(=O)CN(S(=O)(=O)c2ccc(N3CCN[C@H](CO)C3)nc2)C[C@H]1C1CCCCC1 [Compound 139]              IC50            nM           =       1
16  O=C(O)c1sc(-c2ccccc2)cc1N1C(=O)CN(S(=O)(=O)c2ccc(N3CCNCC3)nc2)CC1C1CCCCC1 (stereo not shown) [Compound 88]              IC50            nM           =    2.13
17  CC(C)(C)OC(=O)N1CC(=O)N(c2cc(-c3ccccc3)sc2C(=O)O)[C@H](C2CCCCC2)C1 [Compound 14]              IC50            nM           =    3650
18  O=C(O)c1sc(-c2ccccc2)cc1N1C(=O)CN(S(=O)(=O)c2ccc(F)c(C(F)(F)F)c2)CC1C1CCCCC1 (stereo not shown) [Compound 66]              IC50            nM           =      49
19  N[C@H]1CC(=O)N(c2cc(-c3ccccc3)sc2C(=O)O)[C@H](C2CCCCC2)C1 [Compound 28]              IC50            nM           =     226
20  O=C(O)c1sc(-c2ccccc2)cc1N1C(=O)CN(S(=O)(=O)Cc2ccccc2)CC1C1CCCCC1 (stereo not shown) [Compound 27]              IC50            nM           =      22
21  CC(C)(C)C#Cc1cc(N2C(=O)CN(S(=O)(=O)c3c(Cl)cccc3Cl)C[C@H]2C2CCCCC2)c(C(=O)O)s1 [Compound 282]              IC50            nM           =      31
22  CC(C)(C)C#Cc1cc(N2C(=O)CN(S(=O)(=O)C3CC3)C[C@H]2C2CCCCC2)c(C(=O)O)s1 [Compound 245]              IC50            nM           =       5
23  CC(C)(C)C#Cc1cc(N2C(=O)CN(S(=O)(=O)c3cn[nH]c3)C[C@H]2C2CCCCC2)c(C(=O)O)s1 [Compound 241]              IC50            nM           =       1
24  C[C@H]1CN(c2ccc(S(=O)(=O)N3CC(=O)N(c4cc(-c5ccccc5)sc4C(=O)O)[C@H](C4CCCCC4)C3)cn2)CCN1 [Compound 145]              IC50            nM           =       1
25  CN1CCN(c2ccc(S(=O)(=O)N3CC(=O)N(c4cc(-c5ccccc5)sc4C(=O)O)[C@H](C4CCCCC4)C3)cn2)CC1 [Compound 137]              IC50            nM           =     1.5
26  O=C(O)c1sc(-c2ccccc2)cc1N1C(=O)CN(Cc2ccccc2)C[C@H]1C1CCCCC1 [Compound 17]              IC50            nM           =      24
27  Cc1ccc(-c2cc(N3C(=O)CN(S(=O)(=O)c4ccc(N5CCC[C@H]5C)nc4)C[C@H]3C3CCCCC3)c(C(=O)O)s2)cc1 [Compound 180]              IC50            nM           <     0.2
28  C[C@@H]1COCCN1c1ccc(S(=O)(=O)N2CC(=O)N(c3cc(-c4ccc(F)cc4)sc3C(=O)O)[C@H](C3CCCCC3)C2)cn1 [Compound 195]              IC50            nM           =       3
